Where a SMILES comes first, the peptide text is derived from it. [ ]: non-standard residue; d: D form. Phe(2,6-Me2,4-CONH2) = Cc1cc(C(N)=O)cc(C)c1C[C@H](N)C(=O)O; Phe(4-CONH2) = NC(=O)c1ccc(C[C@H](N)C(=O)O)cc1
Can you tell me EC50 for the items I'm about to list?
Please make sure the unit comes right after the number.

Exercise: Look up and report EC50, with Mu-type opioid receptor (Homo sapiens) as system, for CSCC[C@H](NC(=O)[C@H](Cc1ccccc1)NC(=O)CNC(=O)CNC(=O)[C@@H](N)Cc1ccc(C(N)=O)cc1)C(N)=O (H-[Phe(4-CONH2)]GGFM-NH2)
Sequence (P35372 whole entry): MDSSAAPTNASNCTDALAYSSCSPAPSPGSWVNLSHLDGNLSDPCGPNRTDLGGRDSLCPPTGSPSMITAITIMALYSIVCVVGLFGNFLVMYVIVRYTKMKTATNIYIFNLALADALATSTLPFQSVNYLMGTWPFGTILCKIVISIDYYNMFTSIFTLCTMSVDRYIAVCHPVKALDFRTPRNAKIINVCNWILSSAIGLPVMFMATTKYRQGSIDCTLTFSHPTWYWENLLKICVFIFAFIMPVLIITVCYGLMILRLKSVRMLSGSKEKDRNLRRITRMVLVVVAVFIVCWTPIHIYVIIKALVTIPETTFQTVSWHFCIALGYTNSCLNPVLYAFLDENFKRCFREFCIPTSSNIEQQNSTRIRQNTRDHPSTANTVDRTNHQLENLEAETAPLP
Solution: 270 nM

Exercise: Look up and report EC50, with Mu-type opioid receptor (Homo sapiens) as system, for Cc1cc(C(N)=O)cc(C)c1C[C@H](N)C(=O)NCC(=O)NCC(=O)N[C@@H](Cc1ccccc1)C(=O)N[C@@H](CC(C)C)C(=O)O (H-[Phe(2,6-Me2,4-CONH2)]GGFL-OH)
Solution: 180 nM

Exercise: Look up and report EC50, with Mu-type opioid receptor (Homo sapiens) as system, for CSCC[C@H](NC(=O)[C@H](Cc1ccccc1)NC(=O)CNC(=O)[C@@H](C)NC(=O)[C@@H](N)Cc1ccc2nc(N)sc2c1)C(=O)O
Solution: 350 nM

Exercise: Look up and report EC50, with Mu-type opioid receptor (Homo sapiens) as system, for Cc1cc(C(N)=O)cc(C)c1C[C@H](N)C(=O)N[C@H](CO)C(=O)NCC(=O)N[C@@H](Cc1ccccc1)C(=O)N[C@@H](CC(C)C)C(=O)N[C@H](C(=O)O)[C@@H](C)O
Solution: 250 nM

Exercise: Look up and report EC50, with Mu-type opioid receptor (Homo sapiens) as system, for CSCC[C@H](NC(=O)[C@H](Cc1ccccc1)NC(=O)CNC(=O)CNC(=O)[C@@H](N)Cc1ccc(C(N)=O)cc1)C(=O)O (H-[Phe(4-CONH2)]GGFM-OH)
Solution: 140 nM

Exercise: Look up and report EC50, with Mu-type opioid receptor (Homo sapiens) as system, for Cc1cc(C(N)=O)cc(C)c1C[C@H](N)C(=O)N[C@H](C)C(=O)NCC(=O)N[C@@H](Cc1ccccc1)C(=O)N[C@H](CC(C)C)C(=O)O
Solution: 49 nM

---

Where a SMILES comes first, the peptide text is derived from it. [ ]: non-standard residue; d: D form. Ala(2-NH2-benzothiazol-6-yl) = Nc1nc2ccc(C[C@H](N)C(=O)O)cc2s1; Phe(3-CONH2) = NC(=O)c1cccc(C[C@H](N)C(=O)O)c1; Phe(4-CONH2) = NC(=O)c1ccc(C[C@H](N)C(=O)O)cc1
Can you tell me Ki for the items I'm about to list?

Exercise: Look up and report Ki, with Kappa-type opioid receptor (Homo sapiens, UniProt P41145) as system, for CC(C)C[C@@H](NC(=O)[C@H](Cc1ccccc1)NC(=O)CNC(=O)[C@@H](C)NC(=O)[C@@H](N)Cc1cccc(C(N)=O)c1)C(=O)O
Sequence (P41145 whole entry): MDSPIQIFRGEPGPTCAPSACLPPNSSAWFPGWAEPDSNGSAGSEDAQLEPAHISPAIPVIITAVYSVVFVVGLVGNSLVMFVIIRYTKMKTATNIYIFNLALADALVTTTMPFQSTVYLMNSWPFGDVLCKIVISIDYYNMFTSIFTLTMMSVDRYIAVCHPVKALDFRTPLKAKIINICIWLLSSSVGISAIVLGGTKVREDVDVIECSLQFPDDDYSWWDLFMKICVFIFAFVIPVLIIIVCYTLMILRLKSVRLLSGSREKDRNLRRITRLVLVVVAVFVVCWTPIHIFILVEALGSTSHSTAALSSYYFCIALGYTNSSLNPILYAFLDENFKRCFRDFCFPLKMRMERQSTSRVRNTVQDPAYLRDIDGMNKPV
Solution: > 10 µM

Exercise: Look up and report Ki, with Kappa-type opioid receptor (Homo sapiens, UniProt P41145) as system, for CC(C)C[C@H](NC(=O)[C@H](Cc1ccccc1)NC(=O)CNC(=O)[C@@H](CO)NC(=O)[C@@H](N)Cc1cc[n+]([O-])cc1)C(=O)N[C@H](C(=O)O)[C@@H](C)O
Solution: > 10 µM

Exercise: Look up and report Ki, with Kappa-type opioid receptor (Homo sapiens, UniProt P41145) as system, for CC(C)C[C@H](NC(=O)[C@H](Cc1ccccc1)NC(=O)CNC(=O)CNC(=O)[C@@H](N)Cc1cccc(C(N)=O)c1)C(=O)O (H-[Phe(3-CONH2)]GGFL-OH)
Solution: > 10 µM

Exercise: Look up and report Ki, with Kappa-type opioid receptor (Homo sapiens, UniProt P41145) as system, for CSCC[C@H](NC(=O)[C@H](Cc1ccccc1)NC(=O)CNC(=O)[C@@H](C)NC(=O)[C@@H](N)Cc1ccc2nc(N)sc2c1)C(=O)O
Solution: > 10 µM

Exercise: Look up and report Ki, with Kappa-type opioid receptor (Homo sapiens, UniProt P41145) as system, for CC(C)C[C@H](NC(=O)[C@H](Cc1ccccc1)NC(=O)CNC(=O)[C@@H](CO)NC(=O)[C@@H](N)Cc1ccc2nc(N)sc2c1)C(=O)N[C@H](C(=O)O)[C@@H](C)O
Solution: > 10 µM

Exercise: Look up and report Ki, with Kappa-type opioid receptor (Homo sapiens, UniProt P41145) as system, for Cc1cc(C(N)=O)cc(C)c1C[C@H](N)C(=O)N[C@H](CO)C(=O)NCC(=O)N[C@@H](Cc1ccccc1)C(=O)N[C@@H](CC(C)C)C(=O)N[C@H](C(=O)O)[C@@H](C)O
Solution: > 10 µM

Exercise: Look up and report Ki, with Kappa-type opioid receptor (Homo sapiens, UniProt P41145) as system, for CC(C)C[C@H](NC(=O)[C@H](Cc1ccccc1)NC(=O)CNC(=O)CNC(=O)[C@@H](N)Cc1ccc2nc(N)sc2c1)C(=O)O (H-[Ala(2-NH2-benzothiazol-6-yl)]GGFL-OH)
Solution: > 10 µM

Exercise: Look up and report Ki, with Kappa-type opioid receptor (Homo sapiens, UniProt P41145) as system, for CSCC[C@H](NC(=O)[C@H](Cc1ccccc1)NC(=O)CNC(=O)CNC(=O)[C@@H](N)Cc1ccc(O)cc1)C(=O)O
Solution: > 10 µM

Exercise: Look up and report Ki, with Kappa-type opioid receptor (Homo sapiens, UniProt P41145) as system, for CSCC[C@H](NC(=O)[C@H](Cc1ccccc1)NC(=O)CNC(=O)CNC(=O)[C@@H](N)Cc1ccc(O)cc1)C(N)=O
Solution: 0.21 µM

Exercise: Look up and report Ki, with Kappa-type opioid receptor (Homo sapiens, UniProt P41145) as system, for CC1(C)SSC(C)(C)[C@@H](NC(=O)[C@@H](N)Cc2ccc(C(N)=O)cc2)C(=O)NCC(=O)N[C@@H](Cc2ccccc2)C(=O)N[C@H]1C(=O)O
Solution: > 10 µM

Exercise: Look up and report Ki, with Kappa-type opioid receptor (Homo sapiens, UniProt P41145) as system, for CSCC[C@H](NC(=O)[C@H](Cc1ccccc1)NC(=O)CNC(=O)CNC(=O)[C@@H](N)Cc1ccc(C(N)=O)cc1)C(N)=O (H-[Phe(4-CONH2)]GGFM-NH2)
Solution: 0.46 µM

Origin of values: ChEMBL document CHEMBL1139195
